What pIC50 was measured for each of the following?
# target: recombinant human arginase 1 (Homo sapiens)
# Sequence (P05089 whole entry): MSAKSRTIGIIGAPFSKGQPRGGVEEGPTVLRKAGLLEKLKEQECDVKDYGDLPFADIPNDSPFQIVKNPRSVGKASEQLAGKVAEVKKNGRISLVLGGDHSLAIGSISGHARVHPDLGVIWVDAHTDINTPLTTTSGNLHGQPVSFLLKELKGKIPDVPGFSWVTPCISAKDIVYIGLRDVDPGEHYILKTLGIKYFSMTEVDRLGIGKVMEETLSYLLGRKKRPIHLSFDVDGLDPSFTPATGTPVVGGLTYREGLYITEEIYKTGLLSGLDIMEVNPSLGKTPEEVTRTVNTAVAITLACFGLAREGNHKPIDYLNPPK
# assayProtocol: Human arginase inhibition assay (colorimetric urea detection), arginase 1
# details: IC50 class, hydrochloride salts, 1 h at 37° C., pH 7.4, 10 mM L-arginine, 200 μM MnCl2, read-out: Activity Class (ARG I)
pIC50: −log10 of the molar value. Counter-ions that a name gives are not always drawn.

Per the records, this compound ( C[C@@H](N)C(=O)N1C[C@@H](CCB(O)O)C[C@](N)(C(=O)O)C1 [Example 23, dihydrochloride] ) has pIC50 equal to 5.00 to 6.00

# pIC50 of N[C@@H](CCC(=O)O)C(=O)N1C[C@@H](CCB(O)O)C[C@](N)(C(=O)O)C1 [Example 15, dihydrochloride] = 6.00 to 6.30

Query NCCCC[C@H](N)C(=O)N1C[C@@H](CCB(O)O)C[C@](N)(C(=O)O)C1 [Example 7, trihydrochloride] yields pIC50 of 6.60 to 9.00

// pIC50 lookup, compound = N[C@@H](Cc1c[nH]cn1)C(=O)N1C[C@@H](CCB(O)O)C[C@](N)(C(=O)O)C1 [Example 13, trihydrochloride] , result: 6.60 to 9.00

# credit: patent US10851099B2
